# Test system: Candida albicans
# Test Description: In vivo antifungal activity against murine candidosis model after peroral administration with 0.5 mg/kg at various time intervals. (percent protection for 100% mortality with untreated group)
# Type: functional
# Experimental Parameters: route oral
Known Protection of a selection of molecules
All answers are understood in %, so give the number only.

Use the examples below as a reference point.
C[C@@H](NC(=O)c1ccc(-c2cc(C(F)(F)F)nn2C)s1)[C@](O)(Cn1cncn1)c1ccc(F)cc1F: 10
Cc1nc(-c2sc(-c3ccc(Cl)cc3)nc2C)sc1C(=O)N[C@H](C)[C@](O)(Cn1cncn1)c1ccc(F)cc1F: 10

Measured Protection, Cc1nc(Oc2ccc(Cl)cc2)sc1C(=O)N[C@H](C)[C@](O)(Cn1cncn1)c1ccc(F)cc1F : 10

###

# Test system: Candida albicans
# Test Description: In vivo antifungal activity against murine candidosis model after peroral administration with 0.5 mg/kg at various time intervals. (percent protection for 100% mortality with untreated group)
# Type: functional
# Experimental Parameters: route oral
Recorded Protection values for a group of molecules are listed next.
Output should be the measured figure followed by the unit it is expressed in.

Below are worked cases with known answers.
Cc1oc(-c2ccc(Cl)cc2)cc1C(=O)N[C@H](C)[C@](O)(Cn1cncn1)c1ccc(F)cc1F: 100%
Cc1nc(S(=O)(=O)c2ccc(Cl)cc2)sc1C(=O)N[C@H](C)[C@](O)(Cn1cncn1)c1ccc(F)cc1F: 0%
C[C@@H](NC(=O)c1sc(-c2ccc(C#N)cc2)nc1C(F)(F)F)[C@](O)(Cn1cncn1)c1ccc(F)cc1F: 100%
Cc1nc(-c2ccc(C#N)cc2)sc1C(=O)N[C@H](C)[C@](O)(Cn1cncn1)c1ccccc1F: 100%
C[C@@H](NC(=O)c1ccc(Cl)cc1)[C@](O)(Cn1cncn1)c1ccc(F)cc1F: 0%

Per the records, this molecule ( Cc1nc(-c2ccc(Cl)cc2)sc1C(=O)N[C@H](C)[C@](O)(Cn1cncn1)c1ccc(F)cc1F ) has Protection equal to 100%

So, C[C@@H](NC(=O)c1sc(-c2ccc(Cl)cc2)nc1C(F)(F)F)[C@](O)(Cn1cncn1)c1ccc(F)cc1F ? Its Protection was 100%

###

# Tested on: Candida albicans
# Test Description: In vivo antifungal activity against murine candidosis model after peroral administration with 0.5 mg/kg at various time intervals. (percent protection for 100% mortality with untreated group)
# Format: functional
# Experimental Parameters: route oral
Measurement Kind: Protection (%)
Lab book: enter the figure in %, no units written.

The examples below pair each entry with its known result.
Cc1cc(-c2ccc(C#N)cc2)sc1C(=O)N[C@H](C)[C@](O)(Cn1cncn1)c1ccc(F)cc1F: 100
Cc1nc(-c2ccc(C#N)cc2)sc1C(=O)N[C@H](C)[C@](O)(Cn1cncn1)c1ccc(Cl)cc1Cl: 100

Next compound, Protection to be filled in.
Lab note: C[C@@H](NC(=O)c1nc(-c2ccc(Cl)cc2)ns1)[C@](O)(Cn1cncn1)c1ccc(F)cc1F gave Protection of 10

Taken from ChEMBL document CHEMBL1131231.
